Measured Emax by item
molecular target: human GLP-1R receptor (Homo sapiens, UniProt P43220); construct: expressed in transfected cells; test: GLP-1R low expression cell assay (cAMP TR-FRET, CHO-K1_hGLP-1Rlow_clone10 cells); type: cell-based; details: maximum activation relative to control GLP-1 peptide agonist
Sequence (P43220 24-463): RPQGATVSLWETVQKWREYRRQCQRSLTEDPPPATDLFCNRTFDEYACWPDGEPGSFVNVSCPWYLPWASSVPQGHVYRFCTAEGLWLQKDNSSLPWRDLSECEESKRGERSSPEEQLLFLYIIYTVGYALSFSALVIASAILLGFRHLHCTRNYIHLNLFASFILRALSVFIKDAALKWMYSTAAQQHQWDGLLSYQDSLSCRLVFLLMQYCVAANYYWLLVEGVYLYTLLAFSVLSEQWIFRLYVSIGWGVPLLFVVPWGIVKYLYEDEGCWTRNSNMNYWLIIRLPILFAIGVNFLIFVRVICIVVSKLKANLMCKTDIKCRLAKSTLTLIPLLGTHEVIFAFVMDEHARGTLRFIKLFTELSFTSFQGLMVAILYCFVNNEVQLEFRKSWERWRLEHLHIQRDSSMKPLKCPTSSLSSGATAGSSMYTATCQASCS

>  <substance smiles>
COc1c(Cl)ccc(COc2cccc(C3CCN(Cc4nc5c(OC(F)F)cc(C(=O)O)cc5n4C)CC3)n2)c1F

>  <Emax>
> 85%

$$$$
>  <substance smiles>
Cn1c(CN2CCC(c3cccc(OCc4ccc(C#N)cc4F)n3)CC2)nc2c(OCCO)cc(C(=O)O)cc21

>  <Emax>
> 85%

$$$$
>  <substance smiles>
COc1cc(C(=O)O)cc2c1nc(CN1CCC(c3cccc(OCc4ccc(C#N)c5c4OCC5)n3)CC1)n2C

>  <Emax>
> 85%

$$$$
>  <substance smiles>
Cn1c(CN2CCC(c3cccc(OCc4ccc(Cl)cc4F)n3)CC2)nc2c3c(c(C(=O)O)cc21)OCCO3

>  <Emax>
> 85%

$$$$
>  <substance smiles>
COc1cc(C(=O)O)cc2c1nc(CN1CC[C@@H](c3cccc4c3O[C@@](C)(c3ccc(Cl)cn3)O4)[C@@H]3C[C@@H]31)n2C[C@@H]1CCO1

>  <Emax>
> 85%

$$$$
>  <substance smiles>
COc1c(C(=O)O)ccc2c1nc(CN1CCC(c3cccc(OCc4ccc(Cl)cc4F)n3)CC1)n2C

>  <Emax>
< 25%

$$$$
>  <substance smiles>
COc1cc(C(=O)O)cc2c1nc(CN1CCC(c3cccc(OCc4ccc(C(F)F)cc4F)n3)CC1)n2C

>  <Emax>
> 85%

$$$$
>  <substance smiles>
O=C(O)c1cc(OC(F)F)c2c(c1)nc(CN1CCC(c3cccc(OCc4ccc(Cl)cc4F)n3)CC1)n2CF

>  <Emax>
< 25%

$$$$
>  <substance smiles>
Cn1c(CN2CCC(c3cc(OCc4ccc(C#N)cc4F)ccc3F)CC2)nc2c(OC(F)F)cc(C(=O)O)cc21

>  <Emax>
50 to 85%

$$$$
>  <substance smiles>
CCOc1cc(C(=O)O)cc2c1nc(CN1CCC(c3cccc4c3OC[C@@H](c3ccc(C#N)cc3F)O4)CC1)n2C

>  <Emax>
> 85%

$$$$
>  <substance smiles>
COc1cc(Cl)ccc1COc1cccc(C2CCN(Cc3nc4c(OC(F)F)cc(C(=O)O)cc4n3C)CC2)n1

>  <Emax>
> 85%

$$$$
>  <substance smiles>
CN1C(=O)[C@H](c2ccc(Cl)cc2F)Oc2c(C3CCN(Cc4nc5c(OC(F)F)cc(C(=O)O)cc5n4C)CC3)cccc21

>  <Emax>
< 25%

$$$$
>  <substance smiles>
COc1cc(C(=O)O)cc2c1nc(CN1CCC(c3cccc(OCc4cc(F)c(Cl)cc4F)n3)CC1)n2C

>  <Emax>
> 85%

$$$$
>  <substance smiles>
Cn1c(CN2CCC(c3cccc(OCc4ccc(C#N)cc4F)n3)CC2)nc2c(O)cc(C(=O)O)cc21

>  <Emax>
> 85%

$$$$

###

target: human GLP-1R receptor (Homo sapiens); assay: GLP-1R low expression cell assay (cAMP TR-FRET, CHO-K1_hGLP-1Rlow_clone10 cells); conditions: cAMP TR-FRET, 30 min at 25° C.
pEC50: −log10 of the molar value.

>  <molecule>
Cn1c(CN2CC=C(c3cccc(OCc4ccc(Cl)cc4F)n3)CC2)nc2c(OC(F)F)cc(C(=O)O)cc21 [Compound 155]

>  <tested target>
human GLP-1R receptor (Homo sapiens)

>  <pEC50>
7.00 to 8.00

$$$$
>  <molecule>
Cn1c(CN2CCC(c3cccc(OCc4ccc(Cl)cc4F)n3)CC2)nc2c(OC(F)F)cc(C(=O)O)cc21 [Compound 136]

>  <tested target>
human GLP-1R receptor (Homo sapiens)

>  <pEC50>
> 8.00

$$$$
>  <molecule>
COc1cc(C(=O)O)cc2c1nc([C@@H](C)N1CCC(c3cccc(OCc4ccc(C#N)cc4F)n3)CC1)n2C [Compound 103]

>  <tested target>
human GLP-1R receptor (Homo sapiens)

>  <pEC50>
< 6.00

$$$$
>  <molecule>
Cn1c(CN2CCC(c3cccc(OCc4ccc(C#N)cc4F)n3)CC2)nc2c(N)cc(C(=O)O)cc21 [Compound 115]

>  <tested target>
human GLP-1R receptor (Homo sapiens)

>  <pEC50>
> 8.00

$$$$
>  <molecule>
Cn1c(CN2CCC(c3cccc4c3O[C@H](c3ccc(Cl)cc3F)CC4)CC2)nc2c(OC(F)F)cc(C(=O)O)cc21 [Compound 368]

>  <tested target>
human GLP-1R receptor (Homo sapiens)

>  <pEC50>
< 6.00

$$$$
>  <molecule>
Cn1c(CN2CCC(c3cccc(OCc4ccc(Cl)cc4F)c3)CC2)nc2c(OC(F)F)cc(C(=O)O)cc21 [Compound 148]

>  <tested target>
human GLP-1R receptor (Homo sapiens)

>  <pEC50>
6.00 to 7.00

$$$$
>  <molecule>
Cn1c(CN2CCC(c3cncc(OCc4ccc(Cl)cc4F)n3)CC2)nc2c(OC(F)F)cc(C(=O)O)cc21 [Compound 374]

>  <tested target>
human GLP-1R receptor (Homo sapiens)

>  <pEC50>
6.00 to 7.00

$$$$

###

molecular target: human GLP-1R receptor (Homo sapiens, UniProt P43220); construct: expressed in transfected cells; experiment: GLP-1R low expression cell assay (cAMP TR-FRET, CHO-K1_hGLP-1Rlow_clone10 cells); type: cell-based; settings: maximum activation relative to control GLP-1 peptide agonist
Measured Emax by item

>  <compound>
O=C(O)c1ccc2c(nc(CN3CCC(c4cccc(OCc5ccc(Cl)cc5F)n4)CC3)n2C[C@@H]2CCO2)c1O [Compound 245]

>  <Emax>
> 85%

$$$$
>  <compound>
Cn1c(CN2CCC(c3cccc(OCc4c(F)cc(Cl)cc4F)n3)CC2)nc2c(OC(F)F)cc(C(=O)O)cc21 [Compound 153]

>  <Emax>
> 85%

$$$$
>  <compound>
Cn1c(CN2CCC(c3cccc4c3O[C@@H](c3ccc(Cl)cc3F)CC4)CC2)nc2c(OC(F)F)cc(C(=O)O)cc21 [Compound 369]

>  <Emax>
< 25%

$$$$
>  <compound>
CC(CF)Oc1cc(C(=O)O)cc2c1nc(CN1CCC(c3cccc(OCc4ccc(Cl)cc4F)n3)CC1)n2C (single isomer, unassigned) [Compound 262]

>  <Emax>
> 85%

$$$$
>  <compound>
COc1c(OCc2ccc(Cl)cc2F)cccc1C1CCN(Cc2nc3c(OC(F)F)cc(C(=O)O)cc3n2C)CC1 [Compound 171]

>  <Emax>
< 25%

$$$$
>  <compound>
Cn1c(CN2CCC(c3cncc(OCc4ccc(Cl)cc4F)n3)CC2)nc2c(OC(F)F)cc(C(=O)O)cc21 [Compound 374]

>  <Emax>
> 85%

$$$$
>  <compound>
N#Cc1ccc(COc2cccc(C3CCN(Cc4nc5c(N)nc(C(=O)O)cc5n4C[C@@H]4CCO4)CC3)n2)c(F)c1 [Compound 134]

>  <Emax>
> 85%

$$$$
>  <compound>
Cn1c(CN2CCC(c3ccc4c(c3)N(Cc3ccc(Cl)cc3F)CCO4)CC2)nc2c(OC(F)F)cc(C(=O)O)cc21 [Compound 373]

>  <Emax>
< 25%

$$$$
>  <compound>
COc1cc(C#N)ccc1COc1cccc(C2CCN(Cc3nc4c(OC(F)F)cc(C(=O)O)cc4n3C)CC2)n1 [Compound 156]

>  <Emax>
> 85%

$$$$
>  <compound>
CC(F)Oc1cc(C(=O)O)cc2c1nc(CN1CCC(c3cccc(OCc4ccc(Cl)cc4F)n3)CC1)n2C (stereo not shown) [Compound 359]

>  <Emax>
> 85%

$$$$
>  <compound>
C[C@]1(c2ccc(Cl)cn2)Oc2cccc(C3CCN(Cc4nc5c(OC6CC6)cc(C(=O)O)cc5n4Cc4cncs4)CC3)c2O1 [Compound 6]

>  <Emax>
> 85%

$$$$
>  <compound>
[2H]C([2H])([2H])N(c1nc2c(OC(F)F)cc(C(=O)O)cc2n1C)[C@H]1CC[C@H](c2cccc(OCc3ccc(Cl)cc3F)n2)CC1 [Compound 372]

>  <Emax>
> 85%

$$$$
>  <compound>
C[C@]1(c2ccc(Cl)cn2)Oc2cccc(C3CCN(Cc4nc5cc(C(=O)O)c6c(c5n4C[C@@H]4CCO4)OCCO6)CC3)c2O1 [Compound 99]

>  <Emax>
> 85%

$$$$

###

test: Rat pharmacokinetics, oral dosing; format: in vivo, Sprague-Dawley rats; settings: male, Sprague-Dawley, oral dosing at 3 mg/kg, plasma

>  <molecule>
Cn1c(CN2CCC(c3cccc4c3OC(c3ccc(Cl)cc3F)C=C4)CC2)nc2c(OC(F)F)cc(C(=O)O)cc21 (single isomer, unassigned) [Compound 176]

>  <Cmax>
< 500 ng/mL

$$$$
>  <molecule>
COc1cc(Cl)ccc1COc1cccc(C2CCN(Cc3nc4c(OC(F)F)cc(C(=O)O)cc4n3C)CC2)n1 [Compound 226]

>  <Cmax>
> 5000 ng/mL

$$$$
>  <molecule>
[2H]C([2H])(C)Oc1cc(C(=O)O)cc2c1nc(CN1CCC(c3cccc(OCc4ccc(C#N)cc4F)n3)CC1)n2C [Compound 295]

>  <Cmax>
500 to 1000 ng/mL

$$$$
